Item-by-item account of protein stability index
B1: TMEM175 (parent)
chain: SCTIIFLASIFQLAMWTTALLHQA

Variants of: B1
Procedure details: protein stability index of a GFP-peptide fusion (GPS, HEK-293T) (PSI 1-6); higher = more stable;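 further: lentivirally expressed fusions sorted by FACS into six bins by GFP to DsRed ratio, PSI derived from sequencing read proportions per bin multiplied by bin number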
Measurement context: c terminus: a fixed tail appended
Reported endpoint: protein stability index

INSERT INTO results (mutation_descriptor, measured_value) VALUES
  ('I10A', 3.45),
  ('T18E', 2.78),
  ('L20A', 3.09),
  ('I10N', 2.59),
  ('T18F', 3.03),
  ('Q12D', 3.29),
  ('A8V', 2.62),
  ('A14R', 3.53);
